subject-of-test: T1, recombinant, soluble human ASGR-1 (human, UniProt P07306 62-291)
T1 construct: biotinylated in the binning assay; also called soluble huASGR-1; Soluble ASGR-1 (Amgen)
T1 sequence: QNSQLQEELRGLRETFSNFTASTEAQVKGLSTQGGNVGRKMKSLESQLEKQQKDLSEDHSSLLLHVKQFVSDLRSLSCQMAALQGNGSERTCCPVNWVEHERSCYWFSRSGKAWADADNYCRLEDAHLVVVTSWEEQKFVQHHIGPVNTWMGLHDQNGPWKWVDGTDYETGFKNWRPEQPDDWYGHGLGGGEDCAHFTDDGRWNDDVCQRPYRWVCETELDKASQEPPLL
protocol-details: Octet BLI dissociation, pH 5.6 minus calcium
Reported % Change Compared to pH 7.4 + Calcium values follow for various binders

binder	uom	% Change Compared to pH 7.4 + Calcium
149F8 (antibody, V domains shown, hybridoma mAb) VH: EVQLLESGGGLVQPGGSLRLSCAASGFTFSSYAMSWVRQAPGKGLEWVSAISGRGGNTFYADSVKGRFTISRDNSKNTLYLQMNSLRAEDTAVYYCAKKDYDYVWGSPYFDYWGQGTLVTVSS VL: DIQMTQSPASVSASVGDRVTITCRASQGISNWLAWYQQKPGKAPKLLIYAASSLQSGVPSRFSGNESGTDFTLSISSLQPEDFAIYYCQQTDSFPFTFGPGTKVDVK	%	-1
196C7 (antibody, V domains shown, hybridoma mAb) VH: QVQLVESGGGVVQPGRSLRLSCAASGFTFSSYGMHWVRQAPGKGLEWVAVIWYDGSNEHYADSVKGRFTISRDNSKNTLYLQMNSLRAEDTAVYYCARDRGVGYYGLDVWGQGTTVTVSS VL: DIQMTQSPSSLSASVGDRVTITCRANQAISNYLAWFQQKPGKAPKSLIYAASSLQSGVPSKFSGSGSGTDFTLTISSLQPEDFATYYCQHYLTYPLTFGGGTKVEIK	%	-12
57A7 (antibody, V domains shown, hybridoma mAb) VH: QVQLVQSGAEVKKPGASVKVSCKASGYTFTGYHIHWVRQAPGQDLEWMGWINPNNNGTNYAQKFQGRVTMTRDTSISTAYMELSRLRSDDTAVYYCARDGRSGFDYWGQGTLVTVSS VL: DIQMTQSPSSVSASVGDRVTITCRASQGISRWLAWYQQKPGKAPNLLIYAASNLQSGVPSRFSGSGSGTDFTLTISSLQPEDFATYYCQQANSFPFTFGPGTKVDIK	%	29
53F7 (antibody, V domains shown, hybridoma mAb) VH: QVQLVQSGAEVKKPGASVKVSCKASGYTFTGYHMHWVRQAPGQGLEWMGWINPNNNGTNYAQKFQGRVTMTRDTSISTAYMELNRLTSDDTAVYYCARDGTSSFDYWGQGTLVTVSS VL: DIQMSQSPSSVSASVGDRVTITCRASQGISRWLAWYQQKPGKAPNLLIYAASSLQSGVPSRFSGSGSGTDFTLTISSLQPEDFAIYYCQQANSFPFTFGPGTKVDIK	%	13
194C1 (antibody, V domains shown, hybridoma mAb) VH: QVQLVESGGGVVQPGRSLRLSCAASGFTFSSYGMHWVRQAPGKGLEWVAVIWYDGSNEHYADSVKGRFTISRDNSKNTLYLQMNSLRAEDTAVYYCARNRGVGYYGLDVWGQGTTVTVSS VL: DIQMTQSPSSLSASVGDRVTITCRASQGISNYLAWFQQKPGKAPKSLIYAASSLQSGVPSKFSGSGSGTDFTLTISSLQPEDFATYYCLHYLTYPLTFGGGTKVEIK	%	-8
56E5 (antibody, V domains shown, hybridoma mAb) VH: QVQLVQSGAEVKKPGASVKVSCQASGYTFTGYHMHWVRQAPGQGLEWMGWINPNNNATNYAQKFQGRVTMTRDTSISTAYMELRRLRSDDTAVYHCARDGTSSFDYWGQGTLVTVSS VL: DIQMTQSPSSVSASVGDRVTITCRASQGIRKWLAWYQQKPGKAPKLLIYAASSLQSGVPSRFSGSGSGTDFTLTISSLQPEDFATYYCQQANSFPFTFGPGTKVDIK	%	-1
32D6 (antibody, V domains shown, hybridoma mAb) VH: QVQLVESGGGVVQPGRSLRLSCAASGFTFSSYGMHWVRQAPGKGLEWVTVIWHDGSNAYYADSVKGRFTISRDNSKNTLYLQMNSLRAEDTAVYYCARENSSSYYFDYWGQGTLVTVSS VL: DIQMTQSPSSLSTSVGDRVTITCRASQNIISYLNWYQQKPGKAPKLLMYVASRLQSGVPSRFSGSGSGTDFTLTISSLQAEDFATYYCQQSYSTPYTFGGGTKVAIK	%	55
68G6 (antibody, V domains shown, hybridoma mAb) VH: QVQLVQFGGEVKKPGSSVKVSCKASGYTFTGYYMHWVRQAPGQGLEWMGSIYRNSGGTNYAQKFQGRVTMTRDKSISTAYMEKSRIRSDDTAVYYCARAFYYGSGTYYNEFDYWGQGTLVTVSS VL: SYEVTQPPSVSVSPGQTASITCSGDKLGDKYTYWYQQKAGQSPFLVIYQDRKRPSGIPDRFSGSNSGNTATLTISGTQAMDAADFYCQAWDNSTAVFGGGTKLTVL	%	47
154F4 (antibody, V domains shown, hybridoma mAb) VH: QVQLVESGGGVVQPGRSLRLSCAASGFTFSSYGMHWVRQAPGKGLEWVAVIWYDGSNKYYADSVKGRFTISRDNSKNTLYLQMNSLRAEDTAVYYCAREDSYCSGTSCPYYYYYGMDVWGQGTTVTVSS VL: SYELTQPPSVSVSPGQTASITCSGDKLGNKYVCWYQQKPGQSPVEVIYKDSKRPSGIPERFSGSNSGNTGTLTISGTQAMDEADYYCQAWDNSTLVFGGGTKLTVL	%	67
192E4 (antibody, V domains shown, hybridoma mAb) VH: QVQLVESGGGVVQPGRSLRLSCAASGFTFSSYGMHWVRQAPGKGLEWVAVIWYDGSNKNYVDSVRGRFTISRDNSKNTLYLQMNSLRAEDTAVYYCARDRSVGYDGMDVWGQGTTVTVSS VL: DIQMTQSPSSLSASVGDRVTITCRASQGIGNYLAWFQQKPGKAPKSLIYVVSSLQSGVPSRFSGSGSGTDFTLTISSLQPEDFATYYCQRYDTYPFTFGPGTKVDIK	%	-8
